Provenance of the data: ChEMBL document CHEMBL1201862

A collection of compounds and their measured GI50
Tested on: UACC-62
Assay: NCI tumour cell line growth inhibition, 48 h
Active and inactive are the calls of the source. Cut-off read from the data, not from the text of the source: active = GI50 up to about 1.1 µM and inactive = higher.
Quantity Name: GI50

>>> df
                                    compound  quantity_name          measurement
 0  COc1ccc(N(C(=O)Nc2ccc(Cl)c(Cl)c2)c2ccccc2)cc1           GI50   > 10 µM (inactive)
 1   O=C1NC(Nc2ccccc2)=N/C1=C\c1c(Cl)cccc1Cl           GI50   21.6 µM (inactive)
 2            COc1c(C)c(OCC=C(C)C)cc(CO)c1CO           GI50   60.8 µM (inactive)
 3  Nc1ccc(C(=O)N/C(=C\C=C\c2ccco2)c2nc3c4c(ccc3[nH]2)C(=O)c2ccccc2C4=O)cc1           GI50     25 µM (inactive)
 4                          CCOC(=S)SCC(=O)O           GI50  > 100 µM (inactive)
 5  COCOc1c(C(OCOC)c2cnc(Sc3ccccc3)n2C)ccc(OC)c1OC (centres undefined)           GI50  > 100 µM (inactive)
 6  CC(=O)C1=C(c2ccccc2)N(C2OC(CO)C(O)C(O)C2O)C(S)=C(C#N)C1c1ccc(Cl)cc1 (centres undefined)           GI50   16.4 µM (inactive)
 7  Cc1c2cc[n+](C)cc2c(C)c2c1[nH]c1ccc(OC(C)C)cc12           GI50   2.51 µM (inactive)
 8    Cc1ccccc1-n1c(C)nc2c1C(=O)c1ccccc1C2=O           GI50   47.1 µM (inactive)
 9     NCCCCc1cc(O)c2c(c1O)C(=O)c1ccccc1C2=O           GI50   17.5 µM (inactive)
10           Nc1nc(N)c(N=O)c(Nc2ccc(I)cc2)n1           GI50   7.78 µM (inactive)
11          Oc1ccc(Nc2nc(Cl)c3nc[nH]c3n2)cc1           GI50  > 100 µM (inactive)
12  O=C1C(c2ccccc2)=C(c2ccccc2)C(c2ccc(Cc3ccc(C4=C(c5ccccc5)C(=O)C(c5ccccc5)=C4c4ccccc4)cc3)cc2)=C1c1ccccc1           GI50  > 100 µM (inactive)
13  Cc1nc(=O)n2c(C)n[nH]c2c1C(=O)Nc1cc(Cl)cc(Cl)c1           GI50   16.2 µM (inactive)
14                               N=C(N)SCCCN           GI50   17.6 µM (inactive)
15           CC(=O)c1c(C)n(C)c2c1nnc1ccccc12           GI50   23.1 µM (inactive)
16           Cc1ccc2c(c1)NC(=O)CCSSCCC(=O)N2           GI50  > 100 µM (inactive)
17  CCN(CC)CCn1c2cc3c(cc2c(=O)c2cccnc21)OCCO3           GI50   > 10 µM (inactive)
18                    Clc1ccccc1/C=C/c1cscn1           GI50  > 100 µM (inactive)
19  Cc1ccc(NC(=O)c2nc(S)nc(N)c2-c2ccccc2C)cc1C           GI50  > 100 µM (inactive)
20  COc1cc2cc3c4c(cc(OC)c(OC)c4c2cc1OC)CCN3C(=O)N(C)C           GI50  > 100 µM (inactive)
21  CC(=O)c1sc2c(c1OC(=O)c1ccco1)c(=O)n(-c1ccccc1)c(=S)n2-c1ccccc1           GI50   > 10 µM (inactive)
22            FC(F)(F)c1cccnc1Sc1nc2ccccc2s1           GI50  > 100 µM (inactive)
23              O=C1c2ccccc2C2=Nc3ccncc3CN12           GI50  > 100 µM (inactive)
